# ASSAY_SYSTEM: Protein arginine N-methyltransferase 8 (Homo sapiens, UniProt Q9NR22)
# Sequence (Q9NR22 whole entry): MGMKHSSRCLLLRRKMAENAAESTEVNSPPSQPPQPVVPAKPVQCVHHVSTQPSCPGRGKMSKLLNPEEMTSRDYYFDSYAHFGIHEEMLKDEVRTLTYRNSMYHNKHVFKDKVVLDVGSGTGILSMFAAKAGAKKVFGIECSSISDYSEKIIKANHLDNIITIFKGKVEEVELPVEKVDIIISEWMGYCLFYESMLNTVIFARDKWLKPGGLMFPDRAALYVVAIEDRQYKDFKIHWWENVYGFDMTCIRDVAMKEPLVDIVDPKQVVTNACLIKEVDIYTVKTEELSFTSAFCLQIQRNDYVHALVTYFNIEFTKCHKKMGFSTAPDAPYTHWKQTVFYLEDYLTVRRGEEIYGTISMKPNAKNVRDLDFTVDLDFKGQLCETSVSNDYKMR
# PROTOCOL_DESCRIPTION: Inhibition of human PRMT8 using Histone H4 as substrate and SAM as cofactor by radiometric HotSpot assay
OBSERVATION_TYPE: IC50

N=C(N)NCCC[C@H](N)C(=O)NCC(=O)N[C@@H](CCCN)C(=O)N[C@@H](CCCNC(=N)NCCCSC[C@H]1O[C@@H](n2cnc3c(N)ncnc32)[C@H](O)[C@@H]1O)C(=O)O > 10 µM

Query string: Output measured IC50 for this item: N=C(NCCSC[C@H]1O[C@@H](n2cnc3c(N)ncnc32)[C@H](O)[C@@H]1O)Nc1ccccc1
Result string: > 10 µM

###

# ASSAY_SYSTEM: Histone-arginine methyltransferase CARM1 (Homo sapiens)
# Sequence (whole entry): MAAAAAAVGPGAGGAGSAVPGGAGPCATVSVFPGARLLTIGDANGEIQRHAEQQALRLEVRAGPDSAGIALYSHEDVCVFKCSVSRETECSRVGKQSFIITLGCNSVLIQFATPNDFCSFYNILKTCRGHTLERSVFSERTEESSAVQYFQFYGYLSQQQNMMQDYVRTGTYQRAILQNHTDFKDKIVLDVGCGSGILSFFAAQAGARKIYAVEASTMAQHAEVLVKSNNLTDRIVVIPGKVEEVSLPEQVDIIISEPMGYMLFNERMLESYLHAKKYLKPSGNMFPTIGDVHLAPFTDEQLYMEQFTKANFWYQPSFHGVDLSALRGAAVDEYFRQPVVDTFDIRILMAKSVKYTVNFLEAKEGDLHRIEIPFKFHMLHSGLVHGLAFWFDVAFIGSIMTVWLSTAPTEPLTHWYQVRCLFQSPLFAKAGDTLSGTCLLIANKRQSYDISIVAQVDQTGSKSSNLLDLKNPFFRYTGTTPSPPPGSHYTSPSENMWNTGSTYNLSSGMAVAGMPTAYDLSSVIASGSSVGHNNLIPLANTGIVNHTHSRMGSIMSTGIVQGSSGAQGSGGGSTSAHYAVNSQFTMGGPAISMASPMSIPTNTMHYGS
# PROTOCOL_DESCRIPTION: Inhibition of human PRMT4 using histone H3 as substrate and SAM as cofactor at 10 uM by radiometric HotSpot assay relative to control
Activity calls are given as the source filed them. No cut-off for these calls is given here.
OBSERVATION_TYPE: inhibition

Solved cases below.
Nc1ncnc2c1ncn2[C@@H]1O[C@H](CSCCCNC(=O)NCc2ccccc2)[C@@H](O)[C@H]1O 27%
N=C(NCCSC[C@H]1O[C@@H](n2cnc3c(N)ncnc32)[C@H](O)[C@@H]1O)Nc1cccc(-c2cccc(F)c2)c1 > 90%
Nc1ncnc2c1ncn2[C@@H]1O[C@H](CSCCCNCc2cccc(-c3ccc(O)cc3)c2)[C@@H](O)[C@H]1O > 90%
N=C(NCCCSC[C@H]1O[C@@H](n2cnc3c(N)ncnc32)[C@H](O)[C@@H]1O)Nc1cccc(-c2ccc(Cl)cc2)c1 > 90%

Query string: Output measured inhibition for this item: Nc1ncnc2c1ncn2[C@@H]1O[C@H](CSCCNCc2cccc(-c3cccc(O)c3)c2)[C@@H](O)[C@H]1O
Result string: > 90%

Query string: Output measured inhibition for this item: N=C(NCCCSC[C@H]1O[C@@H](n2cnc3c(NCCCc4ccccc4)ncnc32)[C@H](O)[C@@H]1O)NC1CC1
Result string: Active

Query string: Output measured inhibition for this item: N=C(NCCCN)NCCCSC[C@H]1O[C@@H](n2cnc3c(NCCCc4ccccc4)ncnc32)[C@H](O)[C@@H]1O
Result string: Active

Query string: Output measured inhibition for this item: Nc1ncnc2c1ncn2[C@@H]1O[C@H](CSCCNCc2cccc(-c3ccc(O)cc3)c2)[C@@H](O)[C@H]1O
Result string: > 90%

Query string: Output measured inhibition for this item: N=C(NCCCSC[C@H]1O[C@@H](n2cnc3c(NCCCc4ccccc4)ncnc32)[C@H](O)[C@@H]1O)NC1CCCC1
Result string: Active

Query string: Output measured inhibition for this item: Nc1ncnc2c1ncn2[C@@H]1O[C@H](CSCCNCc2cccc(-c3ccc(Cl)cc3)c2)[C@@H](O)[C@H]1O
Result string: > 90%

Query string: Output measured inhibition for this item: Nc1ncnc2c1ncn2[C@@H]1O[C@H](CSCCNCc2cccc(-c3ccc(F)c(O)c3)c2)[C@@H](O)[C@H]1O
Result string: > 90%

Query string: Output measured inhibition for this item: Nc1ncnc2c1ncn2[C@@H]1O[C@H](CSCCNC(=O)Nc2ccc(F)cc2)[C@@H](O)[C@H]1O
Result string: 27%

Query string: Output measured inhibition for this item: N=C(NCCCO)NCCCSC[C@H]1O[C@@H](n2cnc3c(NCCCc4ccccc4)ncnc32)[C@H](O)[C@@H]1O
Result string: Active

Query string: Output measured inhibition for this item: Nc1ncnc2c1ncn2[C@@H]1O[C@H](CSCCCNCc2cccc(-c3ccc(C(F)(F)F)cc3)c2)[C@@H](O)[C@H]1O
Result string: > 90%

Query string: Output measured inhibition for this item: Nc1ncnc2c1ncn2[C@@H]1O[C@H](CSCCNC(=O)NCCc2ccccc2)[C@@H](O)[C@H]1O
Result string: 27%

Query string: Output measured inhibition for this item: Nc1ncnc2c1ncn2[C@@H]1O[C@H](CSCCNC(=O)NCc2ccccc2Br)[C@@H](O)[C@H]1O
Result string: > 90%

Query string: Output measured inhibition for this item: N=C(NCCCSC[C@H]1O[C@@H](n2cnc3c(N)ncnc32)[C@H](O)[C@@H]1O)Nc1cccc(-c2cccc(F)c2)c1
Result string: > 90%

Query string: Output measured inhibition for this item: N=C(NCCCSC[C@H]1O[C@@H](n2cnc3c(N)ncnc32)[C@H](O)[C@@H]1O)Nc1cccc(-c2cncnc2)c1
Result string: > 90%

Data provenance: ChEMBL document CHEMBL5608259
